- assay.target: human 5-HT4 receptor (Homo sapiens, UniProt Q13639)
- Construct: expressed in transfected cells; host or cells: cardiomyocytes of transgenic mice (alpha-myosin heavy chain promoter); isolated left and right atria and Langendorff-perfused hearts
- Sequence (Q13639 1-387 isoform Q13639-2): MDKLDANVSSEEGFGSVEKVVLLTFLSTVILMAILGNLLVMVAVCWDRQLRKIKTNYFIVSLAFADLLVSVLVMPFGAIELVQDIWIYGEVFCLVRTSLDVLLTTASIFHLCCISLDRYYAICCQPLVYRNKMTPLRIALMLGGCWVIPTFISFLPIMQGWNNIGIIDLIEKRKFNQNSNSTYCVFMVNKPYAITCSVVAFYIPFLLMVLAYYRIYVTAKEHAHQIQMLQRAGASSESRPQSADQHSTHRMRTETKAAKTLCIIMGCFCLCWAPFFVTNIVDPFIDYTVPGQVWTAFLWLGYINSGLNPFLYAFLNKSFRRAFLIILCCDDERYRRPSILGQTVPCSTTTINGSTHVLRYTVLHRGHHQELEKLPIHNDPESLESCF
- assay.notes: Isolated electrically stimulated (1 Hz) left atrial preparations from 5-HT4-TG mice, organ bath contractility
- Set-up: species or system human (expressed in cardiomyocytes of transgenic mice)
- run.conditions: pD2, dF/dtmax, left atrium of 5-HT4-TG
measured.attribute: pEC50
Reminder that pEC50 is minus the log10 of a molar concentration.

- compound: "NCCc1c[nH]c2ccccc12 [Tryptamine, tryptamine]"
  reported.measurement: 4.73

Note pEC50 for the compound shown: CN(C)CCc1c[nH]c2ccc(O)cc12 [Bufotenin, 5-hydroxy-N,N-dimethyl-tryptamine]
6.90

Values from paper PMC10244282
